# assay explanation: in vitro
# condition summary: human, microsomes
Starred links: 1 amine or outer side, 2 acyl side, 3 side chain; linkers in the order of their positions; H or OH if unused. Non-standard residues stand in square brackets, D forms with d. Residues, ends and D or L forms follow the SMILES beside them. X1 = CC(C)C[C@H](NC(=S)[C@H](Cc1ccc(O)cc1)N[*:1])C(=O)[*:2]; X6 = O=C([C@H](Cc1ccc(O)cc1)NC(=S)[C@H]1CCCN1[*:1])[*:2]; X2 = CC(C)C[C@H](NC(=S)[C@@H](CC(C)C)N[*:1])C(=O)[*:2]; NMeL = CN[C@@H](CC(C)C)C(=O)O; dNMeL = CN[C@H](CC(C)C)C(=O)O
Kind request: treat 50 µL/min/mg as inclusive, so microsomal CLint at 50 µL/min/mg or higher is T, anything lower is F.

- compound: "CC(C)C[C@@H]1NC(=O)[C@@H](CC(C)C)NC(=O)[C@H](CC(C)C)NC(=S)[C@H](Cc2ccc(O)cc2)NC(=O)[C@H]2CCCN2C(=O)[C@H](CC(C)C)NC1=O [10e] (cyclo(LL[dP][X1][dL]))"
  class label: "T"
- compound: "CC(C)C[C@@H]1NC(=O)[C@@H](CC(C)C)N(C)C(=O)[C@H](CC(C)C)NC(=O)[C@H](Cc2ccc(O)cc2)NC(=O)[C@H]2CCCN2C(=O)[C@H](CC(C)C)NC1=O [10g] (cyclo(LL[dP]YL[dNMeL]))"
  class label: "T"
- compound: "CC(C)C[C@@H]1NC(=O)[C@H](Cc2ccc(O)cc2)NC(=O)[C@H]2CCCN2C(=O)[C@H](CC(C)C)NC(=O)[C@H](CC(C)C)NC(=S)[C@@H](CC(C)C)NC1=O [10a] (cyclo(L[dP]YL[X2]))"
  class label: "F"
- compound: "CC(C)C[C@@H]1NC(=O)[C@@H](CC(C)C)NC(=O)[C@H](CC(C)C)N(C)C(=O)[C@H](Cc2ccc(O)cc2)NC(=O)[C@H]2CCCN2C(=O)[C@H](CC(C)C)NC1=O [10k] (cyclo(LL[dP]Y[NMeL][dL]))"
  class label: "T"
- compound: "CC(C)C[C@@H]1NC(=O)[C@H](Cc2ccc(O)cc2)NC(=S)[C@H]2CCCN2C(=O)[C@H](CC(C)C)NC(=O)[C@H](CC(C)C)NC(=O)[C@@H](CC(C)C)NC1=O [10d] (cyclo(LL[X6]L[dL]))"
  class label: "F"
